- System: Yap1 mRNA
- Protocol notes: Dose-dependent inhibition of human Yap1 in A-431 cells (Example 8, 10,000 cells per well, RTS4814)
- Assay type: cell-based
- Condition label: 2000.00 nM; A-431 cells
- Protocol: Modified oligonucleotides described in the studies above were tested at various doses in A-431 cells. […] After approximately 48 hours, Yap1 mRNA levels were measured as previously described using the Human Yap1 primer-probe set RTS4814. Yap1 mRNA levels were normalized to total RNA content, as measured by RIBOGREEN®. […] IC50s were calculated using a linear regression on a log/linear plot of the data in excel.
Strand notation (5' to 3'): a small letter for the sugar, then the base; units joined by * are phosphorothioate-linked, units joined directly phosphodiester-linked; [ ] holds rarer units or linkages, { } end groups; capitals alone tell only the bases. k = constrained ethyl (cEt); [5mC] = 5-methylcytosine; d = 2'-deoxy (DNA)
Entries and their % UTC (Yap1 mRNA)
Express your answer in % UTC, writing the number without its unit.

1074486 (kA*kT*kT*d[5mC]*dA*d[5mC]*dT*dA*dA*dT*dA*dT*dG*kG*kT*k[5mC]; antisense) [compound 1074486]	6

Request: Quick one: % UTC (Yap1 mRNA) for 1074580 (DNA kA*k[5mC]*k[5mC]*dA*d[5mC]*dT*dA*dT*dA*dA*dA*dG*d[5mC]*kT*kT*kA; further chemistry not given here) [compound 1074580] ?
Result: 5

Request: Tell me the measured % UTC (Yap1 mRNA) of 1076439 (k[5mC]*kT*kT*dA*dT*dA*dT*dG*dG*dT*dT*dT*dT*kG*kT*kG) [compound 1076439] , please.
Result: 5

Request: State the recorded % UTC (Yap1 mRNA) for this entry: 1076022 (kT*kA*kA*dT*dT*dA*dG*dA*dT*dG*d[5mC]*dT*dG*kA*k[5mC]*kA; antisense) [compound 1076022]
Result: 5

Request: # input substance: 1076340 (antisense kT*kA*kA*dT*dA*dT*d[5mC]*d[5mC]*dT*d[5mC]*dA*dT*d[5mC]*kA*kG*k[5mC]) [compound 1076340] ; wanted: its % UTC (Yap1 mRNA)
Result: 11

Request: Entry under review: 1074452 (kT*kG*kA*d[5mC]*dT*dA*dA*dT*dG*dA*dT*dA*dG*k[5mC]*kA*k[5mC]; antisense) [compound 1074452] . Reported % UTC (Yap1 mRNA)?
Result: 5

----------
- Tested on: Yap1 mRNA
- Protocol notes: Antisense inhibition of human Yap1 in SNU-449 cells by modified oligonucleotides, single dose (Example 5, RTS36584)
- Assay type: cell-based
- Condition label: Table 44 experiment; SNU-449 cells, 10,000 cells per well, free uptake, 2,000 nM, approximately 48 hours; RTS36584; Yap1 mRNA normalized to RIBOGREEN, relative to untreated control cells
Strand notation (5' to 3'): a small letter for the sugar, then the base; units joined by * are phosphorothioate-linked, units joined directly phosphodiester-linked; [ ] holds rarer units or linkages, { } end groups; capitals alone tell only the bases. e = 2'-O-(2-methoxyethyl) (MOE); k = constrained ethyl (cEt); [5mC] = 5-methylcytosine; d = 2'-deoxy (DNA)
Observable: YAP1 (% UTC)
Dear colleague, please return just the value in % UTC, with no unit written.

Some solved entries appear below for comparison.
1198905 (kA*kT*dA*dT*dT*dA*dG*dA*dG*dT*dA*kT*dG*kT*dG*kG; antisense) [Compound 1198905]	5
1198506 (kA*kT*dA*dT*dG*dG*dT*dT*dT*dT*dG*eT*kG*eT*kG*eT; antisense) [Compound 1198506]	47
1198899 (kA*kG*dT*dA*dT*dG*dT*dG*dG*d[5mC]*dA*kA*dT*kA*dA*kT) [Compound 1198899]	75

Next:
Request: Give the measured YAP1 (% UTC) of 1095622 (antisense k[5mC]*kT*dG*dA*dG*dG*dT*dA*dT*dA*dA*e[5mC]*kT*eG*kG*eG) [Compound 1095622] .
Result: 44

----------
- Tested on: Yap1 mRNA
- Protocol notes: Dose-dependent inhibition of human Yap1 in A-431 cells (Example 8, 10,000 cells per well, RTS4814)
- Type: cell-based
- Condition label: 500.0 nM; A-431 cells, 10,000 cells per well, free uptake, approximately 48 hours, RTS4814
- Procedure: Modified oligonucleotides described in the studies above were tested at various doses in A-431 cells. […] After approximately 48 hours, Yap1 mRNA levels were measured as previously described using the Human Yap1 primer-probe set RTS4814. Yap1 mRNA levels were normalized to total RNA content, as measured by RIBOGREEN®. […] IC50s were calculated using a linear regression on a log/linear plot of the data in excel.
Strand notation (5' to 3'): a small letter for the sugar, then the base; units joined by * are phosphorothioate-linked, units joined directly phosphodiester-linked; [ ] holds rarer units or linkages, { } end groups; capitals alone tell only the bases. k = constrained ethyl (cEt); [5mC] = 5-methylcytosine; d = 2'-deoxy (DNA)
Overview of reported Yap1 mRNA, % UTC across a group of substances:
State just the number; it will be interpreted in % UTC.

1076399 (antisense kG*kA*kT*dA*dA*d[5mC]*dT*dT*dA*dG*dA*dG*dA*kT*kG*kT) [compound 1076399]	11
1074445 (kT*kG*kA*dT*dA*dG*d[5mC]*dA*d[5mC]*dT*dA*dG*dG*kA*kG*kG; antisense) [compound 1074445]	8
1075757 (k[5mC]*kT*kT*dA*dA*dT*dA*d[5mC]*dA*dT*dT*dA*dT*kT*k[5mC]*k[5mC]; antisense) [compound 1075757]	5
1074728 (antisense kT*kG*kA*dG*dG*dT*dA*dT*dA*dA*d[5mC]*dT*dG*kG*kG*k[5mC]) [compound 1074728]	4
1075111 (kT*kA*kG*dG*dA*dA*dT*dA*dT*dG*dG*dG*dT*kA*kG*kT; antisense) [compound 1075111]	6

Request: Need Yap1 mRNA, % UTC, item 1074417 (kT*k[5mC]*kT*dT*dT*dA*dG*dA*dG*d[5mC]*d[5mC]*dA*dA*k[5mC]*kT*kG; antisense) [compound 1074417]
Result: 7

Request: # input substance: 1076064 (kT*kA*kT*dG*dA*dA*d[5mC]*dA*dA*dT*dG*dT*dA*k[5mC]*kT*k[5mC]; antisense) [compound 1076064] ; wanted: its Yap1 mRNA, % UTC
Result: 10

Request: Need Yap1 mRNA, % UTC, item 1076396 (antisense k[5mC]*kT*kA*dT*dA*dT*dT*dT*dG*dA*dG*d[5mC]*d[5mC]*kA*kT*kG) [compound 1076396]
Result: 5

Request: For the substance shown here, 1075916 (antisense k[5mC]*kA*kA*dT*dT*dT*dA*dG*dG*dA*dT*dG*d[5mC]*k[5mC]*kT*kT) [compound 1075916] , give the reported Yap1 mRNA, % UTC.
Result: 14

----------
- Tested on: SCC25 cells
- Protocol notes: Cell proliferation assay in SCC25 cells, CellTiter-Glo (Example 25)
- Type: cell-based, human
- Condition label: 0.2 μM, free uptake, 144 hours
Item-by-item account of cell proliferation (luminescence) % UTC

Some solved cases for reference:
1198605 (GTAATATTGCAATCTG; modified gapmer, further chemistry not given here) [compound 1198605]	39 % UTC
958499 (ATTAGAGTATGTGGCA; 3-10-3 cEt gapmer, further chemistry not given here) [compound 958499]	42 % UTC
1198439 (AGTGTATGTCAGAAGA; sugar, 5-methylcytosine, phosphorothioate modifications, further chemistry not given here) [compound 1198439]	30 % UTC
1198440 (AAGTGTATGTCAGAAG; cEt, 2'-MOE, 5-methylcytosine, phosphorothioate modifications, further chemistry not given here) [compound 1198440]	33 % UTC

We next turn to a different substance, shown below.
Request: # get_value(readout= cell proliferation (luminescence) % UTC, system= SCC25 cells) for 1198728 (TATTAGAGTATGTGGC; modified gapmer, further chemistry not given here) [compound 1198728]
Result: 61 % UTC

----------
# IC50 values compiled below
- Tested on: Yap1 mRNA
- Protocol notes: Dose-dependent inhibition of human Yap1 in SNU-449 cells (Example 9, RTS36584)
- Assay type: cell-based
- Condition label: free uptake, linear regression on a log/linear plot
Strand notation (5' to 3'): a small letter for the sugar, then the base; units joined by * are phosphorothioate-linked, units joined directly phosphodiester-linked; [ ] holds rarer units or linkages, { } end groups; capitals alone tell only the bases. e = 2'-O-(2-methoxyethyl) (MOE); k = constrained ethyl (cEt); [5mC] = 5-methylcytosine; d = 2'-deoxy (DNA); m = 2'-O-methyl
Please state the figure in nM; there is no need to write the unit.

1200860 (kT*kA*kA*dA*dG*mU*dG*dT*dA*dT*dG*dT*d[5mC]*kA*kG*kA; antisense) [compound 1200860]	50

Request: What reported IC50 corresponds to 1197177 (kA*kT*kT*dG*dT*d[5mC]*dT*d[5mC]*dA*dT*dG*d[5mC]*d[5mC]*kT*kT*kA; antisense) [compound 1197177] on Yap1 mRNA?
Result: 30

Request: Form field: IC50 recorded for 1198502 (kA*kG*dA*dT*dT*dT*dA*dG*dG*dA*dT*eG*k[5mC]*eA*kT*eG; antisense) [compound 1198502] with Yap1 mRNA (enter value)
Result: 200
